- assay target: PRMT5-MEP50 enzyme complex (Homo sapiens)
- Construct: Full-length (FL)-PRMT5-MEP50 enzyme complex (recombinant proteins from baculovirus-transfected Sf21 cells: FL-PRMT5; MW=73837 kDa and FL-MEP50; MW=38614); made in house; host or cells: baculovirus-transfected Sf21 cells
- Sequence (O14744 whole entry): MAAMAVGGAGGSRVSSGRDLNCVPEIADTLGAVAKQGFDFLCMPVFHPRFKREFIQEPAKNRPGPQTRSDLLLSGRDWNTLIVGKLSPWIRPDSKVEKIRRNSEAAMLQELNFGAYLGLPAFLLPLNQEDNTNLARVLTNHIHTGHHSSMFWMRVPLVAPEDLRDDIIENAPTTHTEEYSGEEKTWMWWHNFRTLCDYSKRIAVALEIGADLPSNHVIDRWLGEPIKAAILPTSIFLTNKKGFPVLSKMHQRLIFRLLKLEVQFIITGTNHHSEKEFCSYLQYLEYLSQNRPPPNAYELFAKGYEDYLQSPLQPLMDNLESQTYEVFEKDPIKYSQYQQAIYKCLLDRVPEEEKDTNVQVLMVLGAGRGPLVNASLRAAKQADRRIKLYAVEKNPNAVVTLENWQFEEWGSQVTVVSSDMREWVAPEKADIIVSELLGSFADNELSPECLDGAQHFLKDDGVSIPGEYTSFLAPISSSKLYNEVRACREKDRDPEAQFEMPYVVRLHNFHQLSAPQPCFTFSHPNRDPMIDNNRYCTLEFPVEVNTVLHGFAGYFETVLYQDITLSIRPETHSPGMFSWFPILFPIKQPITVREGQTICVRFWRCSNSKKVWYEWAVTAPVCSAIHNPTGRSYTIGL
- Sequence (Q9BQA1 whole entry partner): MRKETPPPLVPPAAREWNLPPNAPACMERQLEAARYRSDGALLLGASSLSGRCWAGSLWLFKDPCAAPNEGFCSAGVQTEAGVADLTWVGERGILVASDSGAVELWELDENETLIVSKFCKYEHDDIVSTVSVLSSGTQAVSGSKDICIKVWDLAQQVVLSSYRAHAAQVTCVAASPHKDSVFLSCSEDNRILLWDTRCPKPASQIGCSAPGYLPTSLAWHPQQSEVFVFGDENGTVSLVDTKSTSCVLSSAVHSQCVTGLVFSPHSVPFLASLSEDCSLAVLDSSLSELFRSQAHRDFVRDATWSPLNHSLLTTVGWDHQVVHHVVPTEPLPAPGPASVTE
- run description: PRMT5-MEP50 Enzyme Methylation Assay (Version A)
- Type: biochemical
- test context: first of two EC50s: 7 parameters biphasic model; read-out: Enzyme Methylation Assay Version A (EC50_1)
pEC50: −log10 of the molar value.
value kind: pEC50

O=C1Nc2cc(C(=O)N3CC[C@H](N4CCc5ccccc5C4)[C@@H](O)C3)ccc2OC1C1CC1 (single isomer, unassigned) : 8.80
Cc1c(Br)cnc2ncc(C(=O)N3CC[C@H](N4CCc5ccccc5C4)[C@@H](O)C3)n12 : 8.51
CC(=O)N1CC2CC1CC2Nc1cc(C(=O)N2CC[C@H](N3CCc4ccccc4C3)[C@@H](O)C2)c(F)cn1 (single isomer, unassigned) : 7.70
Cc1cc(Cl)c2nc(C(=O)N3CC[C@H](N4CCc5ccccc5C4)[C@@H](O)C3)cn2c1 : 8.92
CN1CCC(Nc2cc(C(=O)N3CC[C@H](N4CCc5ccccc5C4)[C@@H](O)C3)c(F)cn2)CC1=O (stereo partly shown) : 8.35
O=C(c1cc2ncc(Br)cn2n1)N1CC[C@H](N2CCc3ccccc3C2)[C@@H](O)C1 : 8.55
O=C(c1cc(NC2CC3CCC(C2)N3)ncc1F)N1CC[C@H](N2CCc3ccccc3C2)[C@@H](O)C1 (stereo partly shown) : 7.85
Cc1cnc2nc(C(=O)N3CC[C@H](N4CCc5ccccc5C4)[C@@H](O)C3)cn2c1 : 9.05
Cc1nc2ncc(C(=O)N3CC[C@H](N4CCc5ccccc5C4)[C@@H](O)C3)n2cc1Br : 7.39
Cc1cc(Br)c2nc(C(=O)N3CC[C@H](N4CCc5ccccc5C4)[C@@H](O)C3)cn2c1 : 8.74
CC(=O)N1CCC(Nc2cc(C(=O)N3CC[C@H](N4CCc5ccccc5C4)[C@@H](O)C3)c(F)cn2)C1 (single isomer, unassigned) [Example 114] : 8.48
Cc1nc2nc(C(=O)N3CC[C@H](N4CCc5ccccc5C4)[C@@H](O)C3)cn2cc1Br : 9.22
O=C(c1ccc2c(O)c(CC(F)(F)F)cnc2c1)N1CC[C@H](N2CCc3ccccc3C2)[C@@H](O)C1 : 8.96
O=C(c1cn2cc(Cl)cc(Cl)c2n1)N1CC[C@H](N2CCc3ccccc3C2)[C@@H](O)C1 : 9.10
O=C(c1ccc2c(c1)NCCN(CC(F)(F)F)C2=O)N1CC[C@H](N2CCc3ccccc3C2)[C@@H](O)C1 : 8.82
Cc1c(Br)cnc2nc(C(=O)N3CC[C@H](N4CCc5ccccc5C4)[C@@H](O)C3)cn12 : 8.28
O=C(c1cn2cc(Cl)cc(Br)c2n1)N1CC[C@H](N2CCc3ccccc3C2)[C@@H](O)C1 : 8.96
CCN1CCNc2cc(C(=O)N3CC[C@H](N4CCc5ccccc5C4)[C@@H](O)C3)ccc2C1=O : 8.72
O=C(c1nn2cc(Br)cnc2c1Cl)N1CC[C@H](N2CCc3ccccc3C2)[C@@H](O)C1 : 8.49
CC1(C)Oc2ccc(C(=O)N3CC[C@H](N4CCc5ccccc5C4)[C@@H](O)C3)cc2NC1=O : 9.05
O=C(c1ccc2c(O)c(C3CC3)cnc2c1)N1CC[C@H](N2CCc3ccccc3C2)[C@@H](O)C1 : 9.15
O=C(c1cc(NC2CCN3C(=O)CCC3C2)ncc1F)N1CC[C@H](N2CCc3ccccc3C2)[C@@H](O)C1 (single isomer, unassigned) : 8.54
CC(=O)N1CCC(Nc2cc(C(=O)N3CC[C@H](N4CCc5ccccc5C4)[C@@H](O)C3)c(F)cn2)C1 (single isomer, unassigned) [Example 113] : 8.51

FYI, the data here is from patent US12595248B2.
